OD450 at 0.01 nM antibody: recorded values
# TGT: T1, murine GPC3-his protein (Sino Biological, Cat. No. 50989-M08B) (murine, UniProt Q8CFZ4 25-558)
# T1 construct: Bought protein; also called murine GPC3 protein
# TEST METHOD NOTES: ELISA, coated murine GPC3-His;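 also: antigen coated on plates at 1 µg/mL, test antibody bound for 2 h at 37 °C, detected with HRP-conjugated secondary antibody and TMB substrate after acid stop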
# unit: OD450 nm | format: bare number

{"BINDER": "F3.38.7 human-murine chimeric antibody (antibody, human IgG1, kappa, V domains shown) VH: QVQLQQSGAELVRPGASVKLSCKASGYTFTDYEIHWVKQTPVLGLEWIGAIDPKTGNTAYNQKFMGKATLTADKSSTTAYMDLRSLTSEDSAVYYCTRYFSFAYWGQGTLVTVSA VL: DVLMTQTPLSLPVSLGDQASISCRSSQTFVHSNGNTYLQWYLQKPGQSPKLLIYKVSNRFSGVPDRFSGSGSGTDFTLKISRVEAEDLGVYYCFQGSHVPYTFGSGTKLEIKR", "OD450 at 0.01 nM antibody [OD450 nm]": 0.05}
{"BINDER": "F1.145.22 human-murine chimeric antibody (antibody, human IgG1, kappa, V domains shown) VH: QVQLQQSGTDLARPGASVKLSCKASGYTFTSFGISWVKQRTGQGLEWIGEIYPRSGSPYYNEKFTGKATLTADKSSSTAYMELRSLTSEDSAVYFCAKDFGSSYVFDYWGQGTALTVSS VL: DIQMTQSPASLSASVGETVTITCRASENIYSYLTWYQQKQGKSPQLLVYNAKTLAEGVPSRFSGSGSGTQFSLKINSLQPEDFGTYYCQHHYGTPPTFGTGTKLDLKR", "OD450 at 0.01 nM antibody [OD450 nm]": 0.08}
{"BINDER": "F1.62.9 human-murine chimeric antibody (antibody, human IgG1, kappa, V domains shown) VH: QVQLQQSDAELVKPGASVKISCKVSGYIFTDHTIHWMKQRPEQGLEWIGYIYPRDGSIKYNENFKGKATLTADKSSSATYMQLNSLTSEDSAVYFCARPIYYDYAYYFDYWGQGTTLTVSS VL: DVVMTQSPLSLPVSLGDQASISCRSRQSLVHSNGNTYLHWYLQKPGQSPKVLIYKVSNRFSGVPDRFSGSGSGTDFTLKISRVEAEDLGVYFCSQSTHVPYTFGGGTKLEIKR", "OD450 at 0.01 nM antibody [OD450 nm]": 0.05}
{"BINDER": "F2.23.8 human-murine chimeric antibody (antibody, human IgG1, kappa, V domains shown) VH: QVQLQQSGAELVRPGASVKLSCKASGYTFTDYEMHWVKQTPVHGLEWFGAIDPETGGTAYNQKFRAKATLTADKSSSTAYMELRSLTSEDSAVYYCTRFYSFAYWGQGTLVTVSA VL: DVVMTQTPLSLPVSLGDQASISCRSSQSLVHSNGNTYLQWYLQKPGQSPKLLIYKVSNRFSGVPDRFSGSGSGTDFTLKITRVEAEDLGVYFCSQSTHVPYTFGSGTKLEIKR", "OD450 at 0.01 nM antibody [OD450 nm]": 0.07}
{"BINDER": "F1.41.17 human-murine chimeric antibody (antibody, human IgG1, kappa, V domains shown) VH: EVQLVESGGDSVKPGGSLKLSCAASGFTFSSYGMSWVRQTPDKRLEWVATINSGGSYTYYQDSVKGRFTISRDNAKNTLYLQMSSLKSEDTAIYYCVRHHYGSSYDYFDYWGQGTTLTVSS VL: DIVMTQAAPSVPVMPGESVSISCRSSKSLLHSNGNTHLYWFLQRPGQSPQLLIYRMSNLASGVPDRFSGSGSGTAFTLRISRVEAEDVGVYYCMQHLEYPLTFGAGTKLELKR", "OD450 at 0.01 nM antibody [OD450 nm]": 0.05}
{"BINDER": "F4.21.16 human-murine chimeric antibody (antibody, human IgG1, kappa, V domains shown) VH: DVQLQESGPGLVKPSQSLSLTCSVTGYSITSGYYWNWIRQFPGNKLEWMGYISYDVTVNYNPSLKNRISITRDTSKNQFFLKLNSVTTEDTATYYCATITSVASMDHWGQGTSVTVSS VL: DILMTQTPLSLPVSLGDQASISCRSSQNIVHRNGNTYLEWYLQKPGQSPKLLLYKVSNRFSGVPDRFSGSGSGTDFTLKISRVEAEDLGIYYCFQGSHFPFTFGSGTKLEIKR", "OD450 at 0.01 nM antibody [OD450 nm]": 0.04}

Let me know recorded OD450 at 0.01 nM antibody for F2.152.3 human-murine chimeric antibody (antibody, human IgG1, kappa, V domains shown) VH: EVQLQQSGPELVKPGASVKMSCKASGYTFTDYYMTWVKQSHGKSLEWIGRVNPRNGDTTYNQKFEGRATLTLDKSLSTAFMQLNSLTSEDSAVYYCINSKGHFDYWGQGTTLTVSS VL: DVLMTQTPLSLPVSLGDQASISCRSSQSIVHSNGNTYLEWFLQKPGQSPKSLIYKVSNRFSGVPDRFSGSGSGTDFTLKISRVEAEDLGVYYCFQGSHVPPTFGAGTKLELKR , thanks.
0.67

Determine from records and report OD450 at 0.01 nM antibody for F1.9.19 human-murine chimeric antibody (antibody, human IgG1, kappa, V domains shown) VH: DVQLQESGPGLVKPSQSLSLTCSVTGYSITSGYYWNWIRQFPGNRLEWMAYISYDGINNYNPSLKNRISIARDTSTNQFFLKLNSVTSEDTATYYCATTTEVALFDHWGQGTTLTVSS VL: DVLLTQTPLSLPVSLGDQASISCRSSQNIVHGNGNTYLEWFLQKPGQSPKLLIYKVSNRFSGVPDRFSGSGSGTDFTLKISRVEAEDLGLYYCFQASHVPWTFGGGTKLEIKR
0.05

State its OD450 at 0.01 nM antibody for this binder: F2.39.2 human-murine chimeric antibody (antibody, human IgG1, kappa, V domains shown) VH: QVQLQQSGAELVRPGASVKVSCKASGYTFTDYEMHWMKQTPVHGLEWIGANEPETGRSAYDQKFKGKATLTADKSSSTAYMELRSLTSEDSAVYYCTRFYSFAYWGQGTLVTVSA VL: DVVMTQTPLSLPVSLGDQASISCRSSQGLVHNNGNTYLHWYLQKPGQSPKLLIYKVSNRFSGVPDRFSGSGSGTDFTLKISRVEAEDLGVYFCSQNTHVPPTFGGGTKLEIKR
0.07

Provide only the value of recorded OD450 at 0.01 nM antibody for F1.3.9 human-murine chimeric antibody (antibody, human IgG1, kappa, V domains shown) VH: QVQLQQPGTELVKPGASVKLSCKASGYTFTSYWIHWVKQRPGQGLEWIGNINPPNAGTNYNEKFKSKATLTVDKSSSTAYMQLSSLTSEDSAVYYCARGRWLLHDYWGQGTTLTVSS VL: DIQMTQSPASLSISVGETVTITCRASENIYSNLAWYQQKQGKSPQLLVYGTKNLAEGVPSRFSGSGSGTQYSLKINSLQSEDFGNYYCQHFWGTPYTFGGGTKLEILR
0.04

The origin of these recorded values is patent US20260116991A1.
